- System: XP2
- experimental_details: Effects of metal salts on enzyme activity of XP2
- Assay type: biochemical, Bacillus sp. 2113
- run_conditions: 1 mM
value_type: inhibition of XP2 by metal ion (in words)

INSERT INTO results (compound, value_measured) VALUES
  ('[Cl][Mn][Cl] [MnCl2]', 'weakly inhibited'),
  ('[Cl-].[Cl-].[Co+2] [CoCl2]', 'weakly inhibited'),
  ('[Cl][Cu][Cl] [CuCl2]', 'weakly inhibited');

====

- Tested on: XP1
- Sequence (A4GG22 29-211): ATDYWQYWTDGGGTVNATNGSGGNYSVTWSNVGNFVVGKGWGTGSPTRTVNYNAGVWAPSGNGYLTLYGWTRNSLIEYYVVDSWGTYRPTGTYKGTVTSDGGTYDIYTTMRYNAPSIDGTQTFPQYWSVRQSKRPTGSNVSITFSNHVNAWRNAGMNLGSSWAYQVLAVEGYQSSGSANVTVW
- experimental_details: Effects of metal salts on enzyme activity of XP1
- Format: biochemical, Bacillus sp. 2113
- run_conditions: metal salt 1 mM, 4° C. overnight, also 1 mM in reaction mixture; None = 100
- Procedure: Various metal salts were added to each of the enzyme solutions to a concentration of 1 mM and retained at 4° C. overnight. Then, a metal salt of the same kind was also added to a reaction mixture to a concentration of 1 mM, and the enzyme activities of XP1 and XP2 were determined.
Assign Relative Activity(%) XP1 to each entry below.
Provide only the numeric value, understood in %.

Challenge: Supply Relative Activity(%) XP1 value. Item: [Cl][Hg][Cl]
Response given: 24

Challenge: Find the measured Relative Activity(%) XP1 of [Cl][Mn][Cl] and report it.
Response given: 99

Challenge: Fill in reported Relative Activity(%) XP1 for this entry: [Cl][Cu][Cl]
Response given: 87

Challenge: Quick one: give measured Relative Activity(%) XP1 for [Cl][Ni][Cl]
Response given: 129

Challenge: Supply Relative Activity(%) XP1 value. Item: [Cl-].[Li+]
Response given: 128

Challenge: Tell me measured Relative Activity(%) XP1 for [Cl][Al]([Cl])[Cl] please.
Response given: 110

Challenge: For the compound O=S(=O)([O-])[O-].[Fe+2] , give its measured Relative Activity(%) XP1 value.
Response given: 165

Challenge: Check the records and state Relative Activity(%) XP1 for [Ba+2].[Cl-].[Cl-]
Response given: 137

Challenge: For the compound [Cl-].[Rb+] , report Relative Activity(%) XP1.
Response given: 121

Challenge: Respond only with Relative Activity(%) XP1 recorded for [Cl-].[Cl-].[Co+2]
Response given: 107

Challenge: Please give the documented Relative Activity(%) XP1 of [Cl-].[Cl-].[Mg+2]
Response given: 129

Challenge: Return Relative Activity(%) XP1 (reported value) for this compound: [Ca+2].[Cl-].[Cl-]
Response given: 106
